# credit: ChEMBL document CHEMBL1135377

# Test system: Rattus norvegicus
# EXPERIMENT_DESCRIPTION: In vivo dose required to inhibit AVP-induced pressor response in pithed rats by 50%
# Format: functional
# CONDITION_INFO: read-out: ID50 (the source's name)
RECORDED_ENDPOINT: log10 ED50 (log10 of the value in mg/kg)
Scale: log10; quantity: ED50; unit before log: mg/kg

{"columns": ["SMI", "log10 ED50"],
 "data": [
  ["Cc1ccc(N(C)C(=O)c2ccc(NC(=O)c3ccoc3C)cc2)c(OCCCCCC(=O)N2CCN(C)CC2)c1", -0.96],
  ["Cc1ccc(N(C)C(=O)c2ccc(NC(=O)c3ccoc3C)cc2)c(OCc2ccc(C(=O)N3CCC(N4CCCCC4)CC3)cc2)c1", -1.42]
]}

Q: Reported log10 ED50 for "CC(=O)NCCCOc1ccc(C(=O)N2CCC(N3C(=O)CCc4ccccc43)CC2)cc1" : what is it?
A: -0.47

Q: Reported log10 ED50 for "CCc1nccn1-c1ccccc1C(=O)Nc1ccc(C(=O)N(C)c2ccc(C)cc2OCc2ccc(C(=O)N3CCN(C)CC3)cc2)cc1" : what is it?
A: -1.82

Q: Reported log10 ED50 for "CCc1nccn1-c1ccccc1C(=O)Nc1ccc(C(=O)N(C)c2ccc(C)cc2OCCCCCC(=O)N2CCN(C)CC2)cc1" : what is it?
A: -2.10
